- System: DU-145 prostate
- run.description: NCI-60 one-dose screen, 48 h (100 = growth as untreated, 0 = no growth, -100 = all killed)
- measurement.setup: 10 µM unless noted
- Experimental: Cells are grown in 96 well plates and exposed to the test compound for 48 hours. Compounds are tested at a single concentration, which is 10^-5 M for most compounds. The reported endpoint is percent growth (GI% or GIPRCNT), where numbers from 0 - 100% represent growth inhibition, and numbers from -100% - 0 represent cell death. For example, a value of 40 represents 60% growth inhibition. A value of 0 means no net growth occurred over the course of the experiment. […]
Compounds without any hit were thinned out: in the full panel of roughly 83,000, 20% have a hit.
Friendly reminder: growth below 50% is fulfilled, at or above is not fulfilled.

Illustrative cases are given below, each with its answer.
- compound: "O=C(/C=C(/C=C/c1ccc2[nH]ccc2c1)OB(F)F)/C=C/c1ccc2[nH]ccc2c1"
  category: "fulfilled"
- compound: "Clc1cccc(Nc2ncnc3ccc(-c4cnc5[nH]ccc5c4)cc23)c1"
  category: "not fulfilled"
- compound: "COc1ccc(-c2noc(C(=O)O)c2-c2cc(OC)c(OC)c(OC)c2)cc1"
  category: "fulfilled"

Input line: Please indicate whether the reported growth of COc1cc(C2CC(c3ccc(Nc4nc(Nc5ccc(Cl)cc5)nc(Nc5ccc(Cl)cc5)n4)cc3)=NN2C(C)=O)cc(OC)c1OC (stereo unspecified) is strictly below 50%.
Output line: not fulfilled

Input line: Please indicate whether the reported growth of `CNC(=O)c1ccccc1Oc1nc(Nc2cc(OC)c(OC)c(OC)c2)ncc1Br` is strictly below 50%.
Output line: not fulfilled

Input line: Please indicate whether the reported growth of `COc1ccc2c(c1OC)CO[C@@H]2[C@H]1c2c(cc3c(c2OC)OCO3)CCN1S(=O)(=O)c1cn(C)cn1` is strictly below 50%.
Output line: fulfilled

Input line: Please indicate whether the reported growth of `COc1ccc(C/C(C)=C(\c2ccc(Cl)cc2)c2ccc(OCCN3CCCCC3)cc2)cc1` is strictly below 50%.
Output line: not fulfilled

Input line: Please indicate whether the reported growth of `C#CCOC(=O)/C=C/c1cn(-c2ccccc2)nc1-c1ccc(OC)cc1` is strictly below 50%.
Output line: not fulfilled

Input line: Please indicate whether the reported growth of `CCOC(=O)NC(C)C` is strictly below 50%.
Output line: not fulfilled

====

- Test system: COLO 205 colon
- run.description: NCI-60 one-dose screen, 48 h (100 = growth as untreated, 0 = no growth, -100 = all killed)
- measurement.setup: 10 µM unless noted
- Protocol: Cells are grown in 96 well plates and exposed to the test compound for 48 hours. Compounds are tested at a single concentration, which is 10^-5 M for most compounds. The reported endpoint is percent growth (GI% or GIPRCNT), where numbers from 0 - 100% represent growth inhibition, and numbers from -100% - 0 represent cell death. For example, a value of 40 represents 60% growth inhibition. A value of 0 means no net growth occurred over the course of the experiment. […]
Compounds without any hit were thinned out: in the full panel of roughly 83,000, 20% have a hit. Activity calls are given as the source filed them. Rule for the calls: active = growth percent below 10; inactive = the rest.
readout.label: growth

Examples with answers:
- molecule: "O=S(=O)(NCCCNc1nccc(-c2c(-c3ccc(F)c(O)c3)nc3sccn23)n1)c1ccccc1"
  growth: "30.4% (inactive)"
- molecule: "CCOC(=O)C1=C(N)Oc2c(sc3c(F)cccc23)C1c1ccc(O)cc1 (stereo not drawn)"
  growth: "79.5% (inactive)"
- molecule: "CC(C)(C)[Si](C)(C)OC1[C@@H](CNC(=O)NC(=O)NC(N)=O)O[C@@H](n2cnc3c(NC(=O)Nc4ccccc4)ncnc32)[C@H]1O[Si](C)(C)C(C)(C)C (stereo partly drawn)"
  growth: "54.3% (inactive)"

Input line: What value of growth has been reported for the following molecule? `CCC1=C[C@@H]2C[C@]3(C(=O)OC)c4[nH]c5ccccc5c4CC[N@+](CC(=O)Nc4cc5c(cc4OC)N(C)[C@H]4[C@@](O)(C(=O)OC)[C@H](OC(C)=O)[C@]6(CC)C=CCN7CC[C@]54[C@@H]76)(C2)[C@H]13`
Output line: 104% (inactive)

Input line: What value of growth has been reported for the following molecule? `CCc1ccc(CCCC(=O)O)cc1`
Output line: 112% (inactive)

Input line: What value of growth has been reported for the following molecule? `CCOc1ccccc1Cn1ccnc1CCc1c(Cl)c(O)cc(O)c1C(=O)OC`
Output line: 102% (inactive)

Input line: What value of growth has been reported for the following molecule? `COc1ccc(/C=N/NC(=O)c2ccc(-n3cc(-c4ccccc4)nn3)cc2)cc1OC`
Output line: 91.7% (inactive)

Input line: What value of growth has been reported for the following molecule? `NC(=O)CSc1oc(-c2ccccc2)nc1S(=O)(=O)c1ccc(Br)cc1`
Output line: 107% (inactive)
